- System: Pgp+ (DiOC2(3)-dye effluxing cells) and CD62L+ T cells
- experimental details: DiOC2(3) dye efflux plus CD62L-APC staining, flow cytometry of inhibitor-treated T cells
- Format: cell-based, human
- conditions: 1 μM, treatment for 13 days, IL2 + CD3 and CD28 antibodies
So basically: p5: double +ve pgp+ and CD62L-APC+ from Live cells at 7 or higher? That is Met. Lower than 7? That is Not met.

• Cc1cc(C)c(CNC(=O)c2cc(-c3ccc(N4CCN(C)CC4)nc3)cc3c2c(C)cn3C(C)C)c(=O)[nH]1 = Met
• CCc1sc(N)nc1-c1ccc(OC)cc1 = Not met
• CCn1cc(-c2cccc(C(F)(F)F)c2)c2sc(C(=N)NC3CCS(=O)(=O)CC3)cc2c1=O = Met
• CCN(c1cc(C#CCN2CCOCC2)cc(C(=O)NCc2c(C)cc(C)[nH]c2=O)c1C)[C@H]1CC[C@H](N(C)CCOC)CC1 = Met
• CS(=O)(=O)c1ccc(-c2cnc(NCc3ccco3)n3cnnc23)cc1 = Met
• CCC(CC)n1ccc2c(C(=O)NCc3c(C)cc(C)[nH]c3=O)cc(C#N)cc21 = Met
• Cc1cc(=O)n(C)c2cc(N3C(=O)CC[C@H](NS(=O)(=O)CC(C)C)[C@H]3c3ccc(Cl)cc3)ccc12 = Not met

----------
- System: CD45RA+CCR7+CD62L+ T cells
- experimental details: Flow cytometry for CD45RA, CCR7 and CD62L on inhibitor-treated T cells (all T cells)
- Type: cell-based, human
- conditions: 1 μM, cells cultured for 14 days
property: GATE P6 CD45RA(FITC)+, CCR7 (PE)+, CD62L(APC) (%)

• CCc1sc(N)nc1-c1ccc(OC)cc1 = 65.61
• CCN(c1cc(C#CCN2CCOCC2)cc(C(=O)NCc2c(C)cc(C)[nH]c2=O)c1C)[C@H]1CC[C@H](N(C)CCOC)CC1 = 58.31
• CCn1cc(-c2cccc(C(F)(F)F)c2)c2sc(C(=N)NC3CCS(=O)(=O)CC3)cc2c1=O = 67.77
• CS(=O)(=O)c1ccc(-c2cnc(NCc3ccco3)n3cnnc23)cc1 = 60.45
• CCC(CC)n1ccc2c(C(=O)NCc3c(C)cc(C)[nH]c3=O)cc(C#N)cc21 = 66.83
• Cc1cc(=O)n(C)c2cc(N3C(=O)CC[C@H](NS(=O)(=O)CC(C)C)[C@H]3c3ccc(Cl)cc3)ccc12 = 67.58
• Cc1cc(C)c(CNC(=O)c2cc(-c3ccc(N4CCN(C)CC4)nc3)cc3c2c(C)cn3C(C)C)c(=O)[nH]1 = 63.54

----------
- Test system: Pgp+ (DiOC2(3)-dye effluxing) T cells
- experimental details: DiOC2(3) dye efflux flow cytometry of inhibitor-treated T cells
- Format: cell-based, human
- conditions: 1 μM, treatment for 13 days, IL2 + CD3 and CD28 antibodies
p2: pgp+ from Live cells by entry:
property: p2: pgp+ from Live cells

* CCn1cc(-c2cccc(C(F)(F)F)c2)c2sc(C(=N)NC3CCS(=O)(=O)CC3)cc2c1=O | 31.69
* Cc1cc(C)c(CNC(=O)c2cc(-c3ccc(N4CCN(C)CC4)nc3)cc3c2c(C)cn3C(C)C)c(=O)[nH]1 | 47.87
* CS(=O)(=O)c1ccc(-c2cnc(NCc3ccco3)n3cnnc23)cc1 | 43.53
* Cc1cc(=O)n(C)c2cc(N3C(=O)CC[C@H](NS(=O)(=O)CC(C)C)[C@H]3c3ccc(Cl)cc3)ccc12 | 20.66
* CCc1sc(N)nc1-c1ccc(OC)cc1 | 20.93
* CCC(CC)n1ccc2c(C(=O)NCc3c(C)cc(C)[nH]c3=O)cc(C#N)cc21 | 59.77
* CCN(c1cc(C#CCN2CCOCC2)cc(C(=O)NCc2c(C)cc(C)[nH]c2=O)c1C)[C@H]1CC[C@H](N(C)CCOC)CC1 | 62.54
